Test system: A549
measurementNotes: Induction of cell cycle arrest in human A549 cells assessed as accumulation at G0 phase at 5 uM after 24 hrs by flow cytometry
Format: functional
endpoint: Activity (%)

- CC(=O)O[C@H]1C(=O)[C@@]2(C)[C@H]([C@H](OC(=O)c3ccccc3)[C@]3(O)C[C@H](OC(=O)[C@H](O)[C@@H](NC(=O)c4ccccc4)c4ccccc4)C(C)=C1C3(C)C)[C@]1(OC(C)=O)CO[C@@H]1C[C@@H]2O [PACLITAXEL]: 9.81
- COC(=O)c1nnnn1[C@@H]1c2cc3c(cc2[C@@H](c2cc(OC)c(O)c(OC)c2)[C@H]2C(=O)OC[C@@H]21)OCO3: 9.96
- COc1cc([C@@H]2c3cc4c(cc3[C@@H](n3nnnc3C(=O)OCc3ccccc3)[C@H]3COC(=O)[C@H]23)OCO4)cc(OC)c1OC: 10.28
